- Assayed Target: hMAO-B (Homo sapiens)
- Sequence (P27338 1-520): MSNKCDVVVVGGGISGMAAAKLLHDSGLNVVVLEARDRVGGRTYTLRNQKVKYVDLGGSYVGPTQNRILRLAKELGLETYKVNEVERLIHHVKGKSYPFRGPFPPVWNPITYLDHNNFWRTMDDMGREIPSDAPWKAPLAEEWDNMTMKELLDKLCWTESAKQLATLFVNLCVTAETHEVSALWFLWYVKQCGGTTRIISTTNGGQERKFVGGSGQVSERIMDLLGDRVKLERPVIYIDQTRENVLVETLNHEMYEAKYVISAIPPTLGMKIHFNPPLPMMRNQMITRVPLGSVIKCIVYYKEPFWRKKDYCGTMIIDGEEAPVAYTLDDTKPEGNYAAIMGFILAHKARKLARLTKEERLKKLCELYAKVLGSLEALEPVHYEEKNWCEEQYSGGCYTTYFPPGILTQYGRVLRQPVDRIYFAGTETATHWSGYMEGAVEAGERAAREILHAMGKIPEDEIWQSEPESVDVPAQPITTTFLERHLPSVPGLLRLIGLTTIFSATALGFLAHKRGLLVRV
- Method: hMAO-B inhibition, chemiluminescent MAO-Glo assay and kinetic analysis
- Assay type: biochemical
- Condition Notes: recombinant hMAO-B; mean ± SD, n = 3
pIC50: −log10 of the molar value.
Answer each item with its documented pIC50.

[
  {
    "Compound": "Oc1cc(O)c2oc3cc(O)c4oc5cc(O)cc(O)c5oc4c3oc2c1 [Dioxinodehydroeckol, dioxinodehydroeckol]",
    "pIC50": "< 3.52"
  },
  {
    "Compound": "Oc1cc(O)cc(O)c1",
    "pIC50": "< 3.05"
  }
]

Now consider the entry below.
Problem: Request the reported pIC50 associated with Oc1cc(O)cc(Oc2c(O)cc(O)c3c2Oc2c(O)cc4oc5c(Oc6cc(O)cc(O)c6)c(O)cc(O)c5c4c2O3)c1
Solution: 5.31
